# test target: Akt3 (Homo sapiens)
# Construct: unspecified tag, removed (detagged) (cleaved yes); purchased SignalChem and Proteros (Akt3); Merck Millipore (PDK1) 14-452 (PDK1); none given for Akt3
# Sequence (Q9Y243 whole entry): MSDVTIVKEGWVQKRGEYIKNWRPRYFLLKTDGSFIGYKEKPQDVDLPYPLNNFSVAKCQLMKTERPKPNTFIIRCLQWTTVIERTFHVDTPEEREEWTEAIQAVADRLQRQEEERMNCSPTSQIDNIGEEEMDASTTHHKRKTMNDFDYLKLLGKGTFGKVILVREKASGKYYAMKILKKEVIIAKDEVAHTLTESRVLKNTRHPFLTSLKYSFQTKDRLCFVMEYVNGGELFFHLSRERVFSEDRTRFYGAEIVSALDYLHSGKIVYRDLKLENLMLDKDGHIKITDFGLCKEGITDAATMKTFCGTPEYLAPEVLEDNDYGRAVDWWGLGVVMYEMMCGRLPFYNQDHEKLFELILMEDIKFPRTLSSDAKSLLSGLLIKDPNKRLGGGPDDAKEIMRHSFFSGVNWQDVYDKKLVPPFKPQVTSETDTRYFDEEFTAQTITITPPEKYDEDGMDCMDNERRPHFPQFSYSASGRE
# assay notes: Akt activation assay (PDK1-mediated activation, LANCE Ultra crosstide TR-FRET), Akt3
# Format: biochemical
# details: read-out: Biological Assay 1 IC50 (nM) Akt3
In this section, each of the compounds is paired with its reported IC50.
Record the value in nM, omitting the unit from your answer.

- NC1(c2ccc(-c3cnc(NC(=O)C[C@H]4CC[C@H](N5CCCC5=O)CC4)cc3-c3ccccc3)cc2)CCC1: 15
- CCCC(=O)N[C@H]1CC[C@H](CC(=O)Nc2cnc(-c3ccc(C4(N)CC4)cc3)c(-c3ccccc3)c2)CC1: 75
- COC(=O)N(C)[C@H]1CC[C@H](CC(=O)Nc2cc(-c3ccccc3F)c(-c3ccc(C4(N)CCC4)cc3)cn2)CC1: 120
- NC1(c2ccc(-c3ncc(NC(=O)C[C@H]4CC[C@H](NS(=O)(=O)C5CC5)CC4)cc3-c3ccccc3)cc2)COC1: 56

Data request: Using the record for NC1(c2ccc(-c3ncc(NC(=O)C[C@H]4CC[C@H](N5CCOCC5)CC4)cc3-c3ccsc3)cc2)CCC1 , state its measured IC50.
Data returned: 560

Data request: Assign IC50 to the following record: CC(=O)N[C@H]1CC[C@H](CC(=O)Nc2cnc(-c3ccc([C@]4(N)C[C@@H](O)C4)cc3)c(-c3ccccc3)c2)CC1
Data returned: 220

====

# test target: Akt1 (Homo sapiens)
# Construct: unspecified tag, removed (detagged) (cleaved yes); purchased SignalChem and Proteros (Akt1); Merck Millipore (PDK1) 14-452 (PDK1); none given for Akt1
# Sequence (P31749 whole entry): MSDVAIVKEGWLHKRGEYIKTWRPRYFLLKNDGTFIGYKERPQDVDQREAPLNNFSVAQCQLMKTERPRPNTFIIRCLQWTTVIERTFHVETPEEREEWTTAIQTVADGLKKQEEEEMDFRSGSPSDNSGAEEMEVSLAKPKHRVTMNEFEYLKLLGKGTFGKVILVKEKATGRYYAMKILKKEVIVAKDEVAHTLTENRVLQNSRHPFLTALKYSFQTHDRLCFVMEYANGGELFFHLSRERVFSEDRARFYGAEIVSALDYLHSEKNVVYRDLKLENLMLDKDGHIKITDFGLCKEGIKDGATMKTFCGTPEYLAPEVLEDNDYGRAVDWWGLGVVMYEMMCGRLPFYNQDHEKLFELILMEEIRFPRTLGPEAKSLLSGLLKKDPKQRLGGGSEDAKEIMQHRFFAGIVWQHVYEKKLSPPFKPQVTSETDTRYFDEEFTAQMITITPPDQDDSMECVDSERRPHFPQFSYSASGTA
# assay notes: Akt activation assay (PDK1-mediated activation, LANCE Ultra crosstide TR-FRET), Akt1
# Assay type: biochemical
# details: read-out: Biological Assay 1 IC50 (nM) Akt1
The entries below are paired with their reported IC50.

# example entries with known answers
* CCC(=O)N(C)[C@H]1CC[C@H](CC(=O)Nc2cc(-c3ccccc3)c(-c3ccc(C4(N)CC4)cc3)cn2)CC1 | > 30000 nM
* NC1(c2ccc(-c3cnc(NC(=O)C[C@H]4CC[C@H](N5CCCC5=O)CC4)cc3-c3ccccc3)cc2)CCC1 | 7500 nM
* CN(C)C(=O)[C@H]1CC[C@H](CC(=O)Nc2cnc(-c3ccc(C(C)(C)N)cc3)c(-c3ccccc3)c2)CC1 | > 30000 nM
* CCN(C(=O)C1CC1)[C@H]1CC[C@H](CC(=O)Nc2cc(-c3ccccc3)c(-c3ccc([C@]4(N)C[C@](C)(O)C4)cc3)nn2)CC1 | > 23000 nM
* CCC(=O)N(C)[C@H]1CC[C@H](CC(=O)Nc2cc(-c3ccccc3F)c(-c3ccc([C@]4(N)C[C@](C)(O)C4)cc3)cn2)CC1 | > 22000 nM
* CC(=O)N[C@H]1CC[C@H](CC(=O)Nc2cnc(-c3ccc(C4(N)CCC4)cc3)c(-c3ccccc3)c2)CC1 | 10000 nM

Data request: // Input: CC(C)(N)c1ccc(-c2cnc(NC(=O)C[C@H]3CC[C@H](N4CCCC4=O)CC3)cc2-c2ccccc2)cc1 . Output its IC50 only.
Data returned: > 30000 nM

Data request: Indicate the recorded IC50 value for this compound: CCC(=O)N(C)[C@H]1CC[C@H](CC(=O)Nc2cc(-c3ccccc3)c(-c3ccc([C@]4(N)C[C@](C)(O)C4)cc3)cn2)CC1
Data returned: > 19000 nM

Data request: Look up and report measured IC50 for this entry: COC(=O)N(C(C)C)[C@H]1CC[C@H](CC(=O)Nc2cc(-c3ccccc3)c(-c3ccc([C@]4(N)C[C@](C)(O)C4)cc3)cn2)CC1
Data returned: > 15000 nM

Data request: Using known records, supply IC50 for CCC(=O)N(C)[C@H]1CC[C@H](CC(=O)Nc2cc(-c3ccccc3F)c(-c3ccc(C4(N)CCC4)cc3)cn2)CC1
Data returned: > 19000 nM

Data request: Return value of IC50 for input CC(=O)N[C@H]1CC[C@H](CC(=O)Nc2cnc(-c3ccc(C(C)(C)N)cc3)c(-c3ccsc3)c2)CC1 , no commentary.
Data returned: > 30000 nM

Data request: Please give the documented IC50 of CC(=O)N(C)[C@H]1CC[C@H](CC(=O)Nc2cc(-c3ccccc3)c(-c3ccc(C4(N)CC4)cc3)nn2)CC1
Data returned: > 22000 nM
